protocol_text: Oxidation stability of QH crystals on storage at 40° C. and 75% RH (HPLC of reduced and oxidized coenzyme Q10)
Assay type: physicochemical
test_conditions: crystal stored at 40° C. and 75% RH for approximately 1 month; decrease in relative QH ratio divided by days of storage
Experimental: The QH crystals prepared in Examples 1 to 3 and Comparative Examples 1 and 2 above were stored at 40° C. and 75% RH in a thermostatic chamber for approximately 1 month. Before and after the storage, the reduced coenzyme Q10 content and the oxidized coenzyme Q10 content of the crystal were measured by HPLC (high performance liquid chromatography). On the basis of the measurement results, the below-described QH ratio, relative QH ratio after storage, and oxidizing rate were calculated. […]
attribute_measured: Oxidizing rate (%/day)
Hi! Could you send only the number? It should be in %/day, unit omitted.

// solved cases for Oxidizing rate follow
compound: COc1c(O)c(C)c(C/C=C(\C)CC/C=C(\C)CC/C=C(\C)CC/C=C(\C)CC/C=C(\C)CC/C=C(\C)CC/C=C(\C)CC/C=C(\C)CC/C=C(\C)CCC=C(C)C)c(O)c1OC [Example 1, reduced coenzyme Q10]
result_unit: %/day
Oxidizing rate: 0.30
//
compound: COc1c(O)c(C)c(C/C=C(\C)CC/C=C(\C)CC/C=C(\C)CC/C=C(\C)CC/C=C(\C)CC/C=C(\C)CC/C=C(\C)CC/C=C(\C)CC/C=C(\C)CCC=C(C)C)c(O)c1OC [Comparative Example 1, reduced coenzyme Q10]
result_unit: %/day
Oxidizing rate: 0.48

Next compound, Oxidizing rate to be filled in.
Exercise: Entry under review: COc1c(O)c(C)c(C/C=C(\C)CC/C=C(\C)CC/C=C(\C)CC/C=C(\C)CC/C=C(\C)CC/C=C(\C)CC/C=C(\C)CC/C=C(\C)CC/C=C(\C)CCC=C(C)C)c(O)c1OC [Example 2, reduced coenzyme Q10] . Reported Oxidizing rate?
Solution: 0.26
